- System Under Test: Serotonin 2 (5-HT2) receptor (Rattus norvegicus, UniProt P30994+P08909+P14842)
- Test Summary: Displacement of [3H]ketanserin from 5-hydroxytryptamine 2 receptor from rat cortical membranes.
- Type: cell membranes, Membrane
Recorded Metric: IC50 (nM)
Quick note: give the figure in nM, leave out the unit.

IC50 for CNC(=O)N(C)CCN1CCC(c2cn(-c3ccc(F)cc3)c3cc(Cl)ccc23)CC1 ? 1.6

IC50 for Cc1ccc2c(C3CCN(CCN4CCN(C(C)C)C4=O)CC3)cn(-c3cccc(F)c3)c2c1 ? 11

IC50 for Cc1ccc2c(C3CCN(CCN4CCN(C(C)C)C4=O)CC3)cn(-c3cccc(C(F)(F)F)c3)c2c1 ? 150
